Below: a set of entries, each annotated with reported koff.
- systemName: T1, Human Factor P (human, UniProt P27918 29-469)
- T1 construct: Bought protein (Complement Technology cat# A139) in SET and Biacore; Factor P of human serum in the functional assays; also called FP; human FP
- T1 sequence (P27918 29-469 limits assumed): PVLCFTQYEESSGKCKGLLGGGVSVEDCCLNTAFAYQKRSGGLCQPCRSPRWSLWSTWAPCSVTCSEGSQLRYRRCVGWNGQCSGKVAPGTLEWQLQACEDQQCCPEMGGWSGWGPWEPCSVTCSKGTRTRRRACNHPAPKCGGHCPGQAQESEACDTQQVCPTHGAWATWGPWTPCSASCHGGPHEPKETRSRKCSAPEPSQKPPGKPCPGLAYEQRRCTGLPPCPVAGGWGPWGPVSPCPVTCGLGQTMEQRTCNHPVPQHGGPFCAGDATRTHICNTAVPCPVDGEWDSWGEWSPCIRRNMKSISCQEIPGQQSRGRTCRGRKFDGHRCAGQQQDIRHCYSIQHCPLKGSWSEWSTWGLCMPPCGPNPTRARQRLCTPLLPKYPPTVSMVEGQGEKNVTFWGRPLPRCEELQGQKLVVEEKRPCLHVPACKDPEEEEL
- experiment: Biacore SPR, captured Factor P
resultType: koff

1) NVS806 (Fab, V domains shown) VH: EVQLVQSGAEVKKPGSSVKVSCKASGGTFSSYAISWVRQAPGQGLEWMGRIIPIFGTANYAQKFQGRVTITADESTSTAYMELSSLRSEDTAVYYCARHGGYVFDSWGQGTLVTVSS VL: SYELTQPPSVSVAPGQTARISCSGDNLGSKYVDWYQQKPGQAPVLVIYSDNNRPSGIPERFSGSNSGNTATLTISGTQAEDEADYYCQTYTSGNNYLVFGGGTKLTVLG : 2.24e-05 s⁻¹
2) NVS804 (Fab, V domains shown) VH: EVQLVQSGAEVKKPGSSVKVSCKASGGTFSSYAISWVRQAPGQGLEWMGRIIPIFGTANYAQKFQGRVTITADESTSTAYMELSSLRSEDTAVYYCARHGGYIFDSWGQGTLVTVSS VL: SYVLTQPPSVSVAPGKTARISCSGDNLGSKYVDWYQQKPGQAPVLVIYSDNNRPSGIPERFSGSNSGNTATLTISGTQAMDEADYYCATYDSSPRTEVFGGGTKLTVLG : 1.29e-05 s⁻¹
3) NVS965-T (Fab, V domains shown, NVS965 with heavy chain N30 replaced with threonine) VH: EVQLVQSGAEVKKPGSSVKVSCKASGGTFTSYAISWVRQAPGQGLEWMGRIIPIFGTANYAQKFQGRVTITADESTSTAYMELSSLRSEDTAVYYCARHGGYSFDSWGQGTLVTVSS VL: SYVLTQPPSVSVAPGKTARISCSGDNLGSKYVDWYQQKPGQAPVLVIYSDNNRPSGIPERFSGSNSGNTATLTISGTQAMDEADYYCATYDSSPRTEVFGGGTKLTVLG : 0.000103 s⁻¹
